measurement_notes: TLR3 IRF3 reporter activation blockers – cell-based, poly I:C stimulus, luciferase, 10K MLSCN set, primary screen (AID 602277)
conditions_used: HEK293-TLR3 RL24 IRF3 luciferase reporter, at 10 µM, hits give high values
Note to self: class = bucket of inhibition, per bin 1 = under -30%, bin 2 = from -30% up to 20%, bin 3 = 20% and over

Q) Assign a category based on measured inhibition for CCOC(=O)c1ccc(NS(=O)(=O)c2ccc(SC)cc2)cc1 and give only the class name.
A) bin 2

Q) Assign a category based on measured inhibition for CCCCOC(=O)Nc1nccs1 and give only the class name.
A) bin 2

Q) Assign a category based on measured inhibition for CCOC(=O)c1c(-c2ccc(C)o2)csc1NC(=O)CN1CCN(CC)CC1 and give only the class name.
A) bin 3
